target: Src(1-530) (h) (Homo sapiens); construct: Src(1-530) (h); experiment: Kinase Profiling Assay; assay type: biochemical; details: 100 μM
Attribute: % activity
reportedProperty: % activity (%)

> print(dat)
                             sequencerecord  reportedproperty  experimentalvalue
1          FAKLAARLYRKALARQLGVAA [MMI-0300]        % activity                 23
2        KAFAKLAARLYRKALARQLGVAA [MMI-0400]        % activity                 19
3  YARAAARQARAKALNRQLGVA (Mammalian) [MMI-0200]        % activity                 75
4  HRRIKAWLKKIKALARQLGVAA (Mammalian) [MMI-0500]        % activity                 21

---

biological target: PKCδ (h) (Homo sapiens); construct: purchased Millipore; test: Kinase Profiling Assay; assay type: biochemical; conditions: 100 μM
# reported % activity; entries follow
reportedProperty: % activity (%)

> print(dat)
                             sequencerecord  experimentalvalue
1  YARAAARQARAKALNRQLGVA (Mammalian) [MMI-0200]                101
2  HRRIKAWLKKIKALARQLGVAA (Mammalian) [MMI-0500]                 61
3        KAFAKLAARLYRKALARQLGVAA [MMI-0400]                 90
4          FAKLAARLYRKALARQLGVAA [MMI-0300]                101

---

Molecular target: DRAK1 (h) (Homo sapiens, UniProt Q9UEE5)
Construct: purchased Millipore
Sequence (Q9UEE5 1-414): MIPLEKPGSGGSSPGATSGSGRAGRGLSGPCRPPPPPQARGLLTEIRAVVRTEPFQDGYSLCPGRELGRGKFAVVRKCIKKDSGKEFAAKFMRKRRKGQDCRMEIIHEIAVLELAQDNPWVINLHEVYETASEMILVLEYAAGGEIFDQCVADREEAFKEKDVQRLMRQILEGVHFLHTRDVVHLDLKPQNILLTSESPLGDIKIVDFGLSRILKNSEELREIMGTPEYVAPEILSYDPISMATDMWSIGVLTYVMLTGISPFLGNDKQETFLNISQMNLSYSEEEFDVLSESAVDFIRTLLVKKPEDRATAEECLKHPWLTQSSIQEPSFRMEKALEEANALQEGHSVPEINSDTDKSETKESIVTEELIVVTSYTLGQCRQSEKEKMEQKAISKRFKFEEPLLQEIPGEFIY
Test: Kinase Profiling Assay
Assay type: biochemical
Conditions: 100 μM
Method: Every kinase activity measurement was conducted in duplicate. Specifically, in these assays, a positively charged substrate is phosphorylated with a radiolabeled phosphate group from an ATP if the kinase is not inhibited by an inhibitor peptide. The positively charged substrate then is attracted to a negatively charged filter membrane, quantified with a scintillation counter, and compared to a 100% activity control. […]
reportedProperty: % activity (%)

> print(dat)
                             sequencerecord  reportedproperty  experimentalvalue
1        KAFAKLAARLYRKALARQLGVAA [MMI-0400]        % activity                 14
2  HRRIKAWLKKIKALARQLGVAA (Mammalian) [MMI-0500]        % activity                  8
3          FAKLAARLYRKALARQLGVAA [MMI-0300]        % activity                 14
4  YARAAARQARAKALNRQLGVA (Mammalian) [MMI-0200]        % activity                 34

---

molecular target: IRR (h) (Homo sapiens, UniProt P14616); construct: purchased Millipore; experiment: Kinase Profiling Assay; type: biochemical; conditions: 100 μM
Sequence (P14616 27-1297): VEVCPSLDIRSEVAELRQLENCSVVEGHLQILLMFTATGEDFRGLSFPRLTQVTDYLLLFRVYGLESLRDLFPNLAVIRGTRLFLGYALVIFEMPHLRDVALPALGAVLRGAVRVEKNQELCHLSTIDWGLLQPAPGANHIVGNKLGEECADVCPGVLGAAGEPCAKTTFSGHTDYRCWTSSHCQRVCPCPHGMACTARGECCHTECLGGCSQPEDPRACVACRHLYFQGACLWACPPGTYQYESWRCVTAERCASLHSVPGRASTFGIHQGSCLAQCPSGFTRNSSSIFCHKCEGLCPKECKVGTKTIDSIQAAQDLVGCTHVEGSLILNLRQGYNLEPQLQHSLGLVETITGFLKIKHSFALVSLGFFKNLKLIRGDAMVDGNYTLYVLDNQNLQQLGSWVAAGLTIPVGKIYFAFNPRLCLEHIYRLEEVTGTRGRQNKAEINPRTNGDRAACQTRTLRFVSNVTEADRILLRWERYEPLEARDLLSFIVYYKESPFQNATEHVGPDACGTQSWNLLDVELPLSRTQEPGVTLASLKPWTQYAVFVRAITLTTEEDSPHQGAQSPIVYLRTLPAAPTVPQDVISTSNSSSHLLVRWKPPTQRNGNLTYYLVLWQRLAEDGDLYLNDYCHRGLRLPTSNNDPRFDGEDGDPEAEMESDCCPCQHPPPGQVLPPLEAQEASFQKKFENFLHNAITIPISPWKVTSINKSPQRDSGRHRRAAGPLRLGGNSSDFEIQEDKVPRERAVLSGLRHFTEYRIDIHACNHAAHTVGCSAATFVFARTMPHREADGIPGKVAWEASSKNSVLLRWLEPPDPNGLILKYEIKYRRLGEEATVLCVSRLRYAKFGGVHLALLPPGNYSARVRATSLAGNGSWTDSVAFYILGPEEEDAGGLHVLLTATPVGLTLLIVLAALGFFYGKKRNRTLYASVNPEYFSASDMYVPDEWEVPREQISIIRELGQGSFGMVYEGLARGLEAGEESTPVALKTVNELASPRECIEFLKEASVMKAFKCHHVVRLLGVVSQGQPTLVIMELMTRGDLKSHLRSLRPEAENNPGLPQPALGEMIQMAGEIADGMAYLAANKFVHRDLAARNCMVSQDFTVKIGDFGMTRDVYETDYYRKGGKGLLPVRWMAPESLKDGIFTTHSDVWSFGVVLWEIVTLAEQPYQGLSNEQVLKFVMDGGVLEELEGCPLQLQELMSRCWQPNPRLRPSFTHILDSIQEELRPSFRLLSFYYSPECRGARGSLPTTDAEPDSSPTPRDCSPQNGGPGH
List of % activity values.
reportedProperty: % activity (%)

> print(dat)
                             sequencerecord  experimentalvalue
1        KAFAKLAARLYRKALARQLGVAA [MMI-0400]                  8
2  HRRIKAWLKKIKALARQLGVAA (Mammalian) [MMI-0500]                 10
3          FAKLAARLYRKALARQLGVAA [MMI-0300]                  8
4  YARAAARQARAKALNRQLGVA (Mammalian) [MMI-0200]                 69

---

target: FGFR1 (h) (Homo sapiens); assay: Kinase Profiling Assay; format: biochemical; settings: 100 μM
Sequence (P11362 22-822): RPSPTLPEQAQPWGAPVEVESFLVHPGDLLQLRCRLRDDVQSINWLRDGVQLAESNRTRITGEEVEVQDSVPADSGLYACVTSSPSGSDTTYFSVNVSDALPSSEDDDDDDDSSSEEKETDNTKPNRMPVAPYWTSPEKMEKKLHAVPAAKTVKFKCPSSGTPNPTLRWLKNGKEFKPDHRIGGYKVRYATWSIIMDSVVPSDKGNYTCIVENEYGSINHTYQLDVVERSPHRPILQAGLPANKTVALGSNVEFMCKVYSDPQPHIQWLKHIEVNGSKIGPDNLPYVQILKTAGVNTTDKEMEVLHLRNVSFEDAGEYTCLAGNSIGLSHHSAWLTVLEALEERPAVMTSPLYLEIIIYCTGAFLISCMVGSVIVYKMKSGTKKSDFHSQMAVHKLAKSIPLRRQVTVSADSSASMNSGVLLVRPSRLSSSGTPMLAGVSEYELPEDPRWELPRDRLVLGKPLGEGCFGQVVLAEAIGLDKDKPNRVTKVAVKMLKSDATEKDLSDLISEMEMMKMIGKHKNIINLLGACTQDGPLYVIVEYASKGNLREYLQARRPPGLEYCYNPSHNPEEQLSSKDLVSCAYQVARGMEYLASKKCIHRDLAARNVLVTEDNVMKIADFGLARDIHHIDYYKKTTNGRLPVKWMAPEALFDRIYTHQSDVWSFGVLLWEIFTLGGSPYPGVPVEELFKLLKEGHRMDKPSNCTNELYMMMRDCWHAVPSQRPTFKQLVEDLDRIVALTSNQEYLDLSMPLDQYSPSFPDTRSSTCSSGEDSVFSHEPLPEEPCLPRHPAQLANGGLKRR
reportedProperty: % activity (%)

> print(dat)
                             sequencerecord  experimentalvalue
1          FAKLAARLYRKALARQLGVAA [MMI-0300]                 55
2  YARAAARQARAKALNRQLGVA (Mammalian) [MMI-0200]                 97
3  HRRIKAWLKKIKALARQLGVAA (Mammalian) [MMI-0500]                 18
4        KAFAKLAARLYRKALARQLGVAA [MMI-0400]                 59

---

target: EphA5 (h) (Homo sapiens, UniProt P54756); assay: Kinase Profiling Assay; format: biochemical; conditions: 100 μM
Sequence (P54756 25-1037): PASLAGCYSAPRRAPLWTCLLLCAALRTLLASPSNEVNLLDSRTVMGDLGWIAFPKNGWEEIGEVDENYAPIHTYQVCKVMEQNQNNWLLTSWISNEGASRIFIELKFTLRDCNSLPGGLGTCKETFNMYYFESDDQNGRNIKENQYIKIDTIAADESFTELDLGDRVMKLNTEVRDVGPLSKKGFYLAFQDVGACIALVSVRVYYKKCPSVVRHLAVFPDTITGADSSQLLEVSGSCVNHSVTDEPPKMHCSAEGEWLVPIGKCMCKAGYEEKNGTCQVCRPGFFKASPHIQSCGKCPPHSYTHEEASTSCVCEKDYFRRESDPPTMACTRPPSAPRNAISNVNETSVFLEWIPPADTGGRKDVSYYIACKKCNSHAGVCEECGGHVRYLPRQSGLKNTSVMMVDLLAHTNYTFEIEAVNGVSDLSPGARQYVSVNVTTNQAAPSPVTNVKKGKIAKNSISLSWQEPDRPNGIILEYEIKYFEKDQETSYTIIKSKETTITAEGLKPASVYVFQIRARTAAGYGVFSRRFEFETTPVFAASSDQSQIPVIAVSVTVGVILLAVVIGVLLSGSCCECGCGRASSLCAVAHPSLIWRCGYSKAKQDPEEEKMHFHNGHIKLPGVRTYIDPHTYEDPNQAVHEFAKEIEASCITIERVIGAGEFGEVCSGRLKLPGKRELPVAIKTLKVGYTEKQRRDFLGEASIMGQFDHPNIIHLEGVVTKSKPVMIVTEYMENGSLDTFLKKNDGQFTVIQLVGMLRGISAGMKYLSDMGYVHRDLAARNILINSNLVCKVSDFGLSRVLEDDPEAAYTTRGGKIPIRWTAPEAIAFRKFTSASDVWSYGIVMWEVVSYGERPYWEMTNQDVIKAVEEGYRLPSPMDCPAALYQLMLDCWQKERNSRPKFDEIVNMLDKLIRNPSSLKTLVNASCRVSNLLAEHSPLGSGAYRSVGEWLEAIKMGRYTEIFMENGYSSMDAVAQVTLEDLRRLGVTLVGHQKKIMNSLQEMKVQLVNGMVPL
Listed below: % activity values for each entry.
reportedProperty: % activity (%)

> print(dat)
                             sequencerecord                             subjectoftest  outputunit  experimentalvalue
1        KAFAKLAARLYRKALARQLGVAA [MMI-0400]  EphA5 (h) (Homo sapiens, UniProt P54756)           %                 24
2  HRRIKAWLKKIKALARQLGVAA (Mammalian) [MMI-0500]  EphA5 (h) (Homo sapiens, UniProt P54756)           %                 42
3  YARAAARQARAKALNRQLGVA (Mammalian) [MMI-0200]  EphA5 (h) (Homo sapiens, UniProt P54756)           %                123
4          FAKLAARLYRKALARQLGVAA [MMI-0300]  EphA5 (h) (Homo sapiens, UniProt P54756)           %                 18

---

target: EphA4 (h) (Homo sapiens, UniProt P54764); test: Kinase Profiling Assay; type: biochemical; settings: 100 μM
Recorded % activity, one value per entry.
reportedProperty: % activity (%)

> print(dat)
                             sequencerecord  reportedproperty  outputunit  experimentalvalue
1  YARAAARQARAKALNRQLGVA (Mammalian) [MMI-0200]        % activity           %                127
2          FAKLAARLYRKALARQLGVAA [MMI-0300]        % activity           %                 88
3  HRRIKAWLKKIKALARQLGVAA (Mammalian) [MMI-0500]        % activity           %                 48
4        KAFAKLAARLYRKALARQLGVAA [MMI-0400]        % activity           %                 65

---

target: ALK (h) (Homo sapiens, UniProt Q9UM73); test: Kinase Profiling Assay; format: biochemical; conditions: 100 μM
Sequence (Q9UM73 19-1620): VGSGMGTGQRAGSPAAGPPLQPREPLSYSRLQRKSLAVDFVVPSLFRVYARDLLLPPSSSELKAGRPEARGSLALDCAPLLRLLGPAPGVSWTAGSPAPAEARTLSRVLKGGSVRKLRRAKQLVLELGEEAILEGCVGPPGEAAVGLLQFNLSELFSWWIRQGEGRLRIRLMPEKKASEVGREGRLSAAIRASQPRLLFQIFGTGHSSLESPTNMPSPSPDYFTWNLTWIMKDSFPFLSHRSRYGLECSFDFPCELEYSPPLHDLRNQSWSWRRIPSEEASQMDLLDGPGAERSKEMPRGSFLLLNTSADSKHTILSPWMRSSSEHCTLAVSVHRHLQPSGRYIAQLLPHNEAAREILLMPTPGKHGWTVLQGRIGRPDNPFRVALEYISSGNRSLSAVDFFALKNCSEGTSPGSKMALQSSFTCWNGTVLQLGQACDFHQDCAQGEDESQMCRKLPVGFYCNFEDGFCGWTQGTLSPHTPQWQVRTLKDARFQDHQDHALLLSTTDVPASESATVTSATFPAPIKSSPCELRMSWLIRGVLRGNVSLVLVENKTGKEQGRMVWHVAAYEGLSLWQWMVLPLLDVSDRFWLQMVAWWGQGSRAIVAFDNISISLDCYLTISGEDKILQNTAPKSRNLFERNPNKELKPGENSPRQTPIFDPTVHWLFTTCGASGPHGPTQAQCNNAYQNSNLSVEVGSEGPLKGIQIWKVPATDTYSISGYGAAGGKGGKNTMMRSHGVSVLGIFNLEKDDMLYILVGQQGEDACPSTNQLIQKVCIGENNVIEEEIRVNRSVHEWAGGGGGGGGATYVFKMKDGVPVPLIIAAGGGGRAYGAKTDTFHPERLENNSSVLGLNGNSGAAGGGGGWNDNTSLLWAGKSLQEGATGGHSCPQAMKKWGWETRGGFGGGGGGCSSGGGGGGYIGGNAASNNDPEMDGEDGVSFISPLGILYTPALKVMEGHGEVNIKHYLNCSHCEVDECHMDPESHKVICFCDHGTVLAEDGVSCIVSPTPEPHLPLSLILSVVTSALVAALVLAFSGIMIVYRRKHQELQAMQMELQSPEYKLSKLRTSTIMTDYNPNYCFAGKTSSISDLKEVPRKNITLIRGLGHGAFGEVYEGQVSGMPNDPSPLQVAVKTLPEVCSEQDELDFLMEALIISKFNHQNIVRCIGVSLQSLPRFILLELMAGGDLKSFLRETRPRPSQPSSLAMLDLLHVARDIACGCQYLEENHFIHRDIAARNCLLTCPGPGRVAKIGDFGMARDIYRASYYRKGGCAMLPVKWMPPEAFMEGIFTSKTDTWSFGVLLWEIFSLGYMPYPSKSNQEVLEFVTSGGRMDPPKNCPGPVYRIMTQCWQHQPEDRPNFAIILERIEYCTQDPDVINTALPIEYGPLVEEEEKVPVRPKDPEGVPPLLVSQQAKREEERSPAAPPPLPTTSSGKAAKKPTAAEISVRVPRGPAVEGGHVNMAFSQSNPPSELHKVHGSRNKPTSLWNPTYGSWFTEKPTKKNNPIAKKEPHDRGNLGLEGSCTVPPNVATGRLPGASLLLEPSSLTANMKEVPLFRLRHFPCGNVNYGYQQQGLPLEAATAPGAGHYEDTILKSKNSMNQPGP
In this section we review reported % activity values for a set of sequences.
reportedProperty: % activity (%)

> print(dat)
                             sequencerecord                           subjectoftest  outputunit  experimentalvalue
1        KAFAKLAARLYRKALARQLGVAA [MMI-0400]  ALK (h) (Homo sapiens, UniProt Q9UM73)           %                 16
2          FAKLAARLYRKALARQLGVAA [MMI-0300]  ALK (h) (Homo sapiens, UniProt Q9UM73)           %                 19
3  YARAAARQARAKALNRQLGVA (Mammalian) [MMI-0200]  ALK (h) (Homo sapiens, UniProt Q9UM73)           %                 95
4  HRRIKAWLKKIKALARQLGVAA (Mammalian) [MMI-0500]  ALK (h) (Homo sapiens, UniProt Q9UM73)           %                 12
